src = ChEMBL document CHEMBL4513216

test: Toxicity liver stage against HepG2, at 10uM; format: cell-based; parameters: test concentration 10 uM, cell line HepG2-A16-CD81EGFP; conditions: human, HepG2-A16-CD81EGFP cells; read-out: INHIBITION
Measurement label: cytotoxicity at 10 µM (%)
Please give a number only; it is taken to be in %.

Compound	cytotoxicity at 10 µM (%)
O=C1CCCN1Cc1ccc(C(=O)N2CCCC2c2cccs2)cc1 (stereo not drawn)	3.78

Notebook: `CC(C)(C)OC(=O)NCCNC(=O)c1ccc(-c2ccco2)[nH]c1=O` , cytotoxicity at 10 µM read as -13.1

Notebook: `O=C(c1cccc(CNS(=O)(=O)c2ccccc2F)c1)N1CCCC1` , cytotoxicity at 10 µM read as -0.0481

Notebook: `Cc1nc(CN2C[C@@H](NC(=O)C3CCC3)[C@H]3COC[C@H]32)cs1` , cytotoxicity at 10 µM read as 7.58

Notebook: `O=C(c1ccccc1F)N1CC[C@@H]2CN(c3ncccn3)CCO[C@@H]2C1` , cytotoxicity at 10 µM read as -78.1

Notebook: `COc1ncnc(N(C)C)c1NC(=O)c1cscc1C` , cytotoxicity at 10 µM read as -1.7

Notebook: CCN1CC(COC(=O)c2ccc(Br)cc2F)CC1=O (stereo not drawn) , cytotoxicity at 10 µM read as -2.45

Notebook: CCCc1nc(C(=O)NC(COC)c2ccnn2C)cs1 (stereo not drawn) , cytotoxicity at 10 µM read as -2.37

Notebook: `O=C(NCCc1cc2nc(-c3ccncc3)ccn2n1)C1CCOCC1` , cytotoxicity at 10 µM read as 4.59

Notebook: `Cn1cccc1C(=O)N1CCC2(CCN(C(=O)c3cccnc3)C2)CC1` , cytotoxicity at 10 µM read as -102

Notebook: `Cc1nnc(N2CCC(CN(C)C(C)C)CC2)c(C#N)c1C` , cytotoxicity at 10 µM read as 3.63

Notebook: `Cc1csc2c(=O)n(CCN3CCNCC3)cnc12` , cytotoxicity at 10 µM read as -3.5

Notebook: `Cc1csc(C(C)(C)NCCNS(C)(=O)=O)n1` , cytotoxicity at 10 µM read as 4.61

Notebook: `O=C(CCn1c(C(F)(F)F)cc2cccnc21)N1CCCC1` , cytotoxicity at 10 µM read as -21.5

Notebook: CN(C)CC(NC(=O)c1ccn(C)c(=O)c1)c1ccccc1 (stereo not drawn) , cytotoxicity at 10 µM read as -5.85

Notebook: CN(Cc1nnc(C2CC2)n1C)C1CCN(Cc2nccn2C)C1 (stereo not drawn) , cytotoxicity at 10 µM read as -8.22

Notebook: Nc1nc2c(c(N3CCCC(CN4CCCC4=O)C3)n1)CCNCC2 (stereo not drawn) , cytotoxicity at 10 µM read as 14.6
